- System: Staphylococcus epidermidis
- experiment: in vitro antibacterial activity, agar dilution
- Assay type: cell-based
- setup conditions: strain EPI2, read-out: Minimum Inhibitory Concentration
Measured MIC by item
Return type: number; implicit unit µg/mL.

# molecule, test value
rows = [
    ("CO/N=C(\\C(=O)N[C@@H]1C(=O)N2C(C(=O)O)=C(CSc3nnn(Cc4nnn[nH]4)n3)CS[C@H]12)c1csc(N)n1 [G]", 64),
    ("CO[C@@]1(NC(=O)Cc2cccs2)C(=O)N2C(C(=O)O)=C(CSc3nnnn3Cc3nnn[nH]3)CS[C@@H]21 [A]", 8),
    ("CO/N=C(\\C(=O)N[C@@H]1C(=O)N2C(C(=O)O)=C(CSc3nnnn3Cc3nnnn3C)CS[C@H]12)c1csc(N)n1 [F]", 32),
]

# assay system Staphylococcus epidermidis: give MIC of CCN1CCN(C(=O)N[C@@H](C(=O)N[C@@H]2C(=O)N3C(C(=O)O)=C(CSc4nnnn4Cc4nnn[nH]4)CS[C@H]23)c2ccc(O)cc2)C(=O)C1=O [D] 32

Param request: MIC | system Staphylococcus epidermidis | item Cn1nnnc1Cn1nnnc1SCC1=C(C(=O)O)N2C(=O)[C@@H](NC(=O)Cc3cccs3)[C@H]2SC1 [B] 4

Give MIC; test system Staphylococcus epidermidis; molecule CO/N=C(\C(=O)N[C@@H]1C(=O)N2C(C(=O)O)=C(CSc3nnnn3Cc3nnn[nH]3)CS[C@H]12)c1csc(N)n1 [Compound E] 64

Retrieve MIC on Staphylococcus epidermidis; query O=CO[C@@H](C(=O)N[C@@H]1C(=O)N2C(C(=O)O)=C(CSc3nnnn3Cc3nnn[nH]3)CS[C@H]12)c1ccccc1 [C] 32

----------
- System: Staphylococcus aureus
- experiment: in vitro antibacterial activity, agar dilution
- Format: cell-based
- setup conditions: read-out: Minimum Inhibitory Concentration
Below, each entry is listed with its recorded MIC.
Report the figure along with its unit, number first.

# compound, MIC
rows = [
    ("CO[C@@]1(NC(=O)Cc2cccs2)C(=O)N2C(C(=O)O)=C(CSc3nnnn3Cc3nnn[nH]3)CS[C@@H]21 [A]", "8 µg/mL"),
    ("CO/N=C(\\C(=O)N[C@@H]1C(=O)N2C(C(=O)O)=C(CSc3nnnn3Cc3nnn[nH]3)CS[C@H]12)c1csc(N)n1 [Compound E]", "16 µg/mL"),
]

Turning now to a further compound:
Given CCN1CCN(C(=O)N[C@@H](C(=O)N[C@@H]2C(=O)N3C(C(=O)O)=C(CSc4nnnn4Cc4nnn[nH]4)CS[C@H]23)c2ccc(O)cc2)C(=O)C1=O [D] , report its MIC on Staphylococcus aureus. 32 µg/mL

----------
Item-by-item account of MIC
- Tested on: Enterobacter cloacae
- experiment: in vitro antibacterial activity, agar dilution
- Type: cell-based
- setup conditions: strain 265A, read-out: Minimum Inhibitory Concentration
- From the text: The bis-tetrazol-thiomethyl substituted cephalosporins of this invention are broad spectrum antibiotics which inhibit the growth of both gram positive and gram negative microorganisms which are pathogenic to man and animals. […] The following Table 2 lists the minimum inhibitory concentrations of representative compounds of the invention. The data in TABLE 2 were obtained in the agar dilution test method using Mueller-Hinton agar containing two percent Supplement C (Difco). […]

Supply MIC value. Item: Cn1nnnc1Cn1nnnc1SCC1=C(C(=O)O)N2C(=O)[C@@H](NC(=O)Cc3cccs3)[C@H]2SC1 > 128 µg/mL

Annotate the compound O=CO[C@@H](C(=O)N[C@@H]1C(=O)N2C(C(=O)O)=C(CSc3nnnn3Cc3nnn[nH]3)CS[C@H]12)c1ccccc1 with its measured MIC. > 128 µg/mL

Tell me measured MIC for CO[C@@]1(NC(=O)Cc2cccs2)C(=O)N2C(C(=O)O)=C(CSc3nnnn3Cc3nnn[nH]3)CS[C@@H]21 please. > 128 µg/mL
